biological target: STK17A (human) (UniProt Q9UEE5); test: radiometric filter-binding kinase assay, Kinase HotSpot; settings: compound 0.5 µM; ATP 10 µM
Sequence (Q9UEE5 whole entry, looked up): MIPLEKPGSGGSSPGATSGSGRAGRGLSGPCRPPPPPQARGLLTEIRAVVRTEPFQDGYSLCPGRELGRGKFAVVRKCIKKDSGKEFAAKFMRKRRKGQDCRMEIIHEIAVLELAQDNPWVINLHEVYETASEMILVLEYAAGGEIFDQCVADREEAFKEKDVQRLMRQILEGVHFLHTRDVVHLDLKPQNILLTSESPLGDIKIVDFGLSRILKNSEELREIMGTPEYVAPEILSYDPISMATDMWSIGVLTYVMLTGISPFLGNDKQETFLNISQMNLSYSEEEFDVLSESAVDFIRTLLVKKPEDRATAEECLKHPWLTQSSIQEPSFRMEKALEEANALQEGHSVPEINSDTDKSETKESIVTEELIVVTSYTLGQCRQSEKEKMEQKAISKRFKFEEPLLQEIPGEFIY
measurement.kind: residual activity (%)

>>> assay_value("O=C1Nc2ccccc2/C1=C1/Nc2ccccc2/C1=N\\OCCC(O)CO (stereo not given)")
22.5
>>> assay_value("Cn1nc2c3c(cccc31)C(=O)c1ccccc1-2")
83.7
>>> assay_value("Nc1nccc(-c2c(-c3ccc(F)cc3)ncn2C2CCNCC2)n1")
97.8
>>> assay_value("O=C(Nc1cccc(Nc2cc(Nc3cccc(C(F)(F)F)c3)ncn2)c1)C1CC1")
99.2
>>> assay_value("CN(C)C[C@H]1CCn2c(c(C3=C(c4cn(C)c5ccccc45)C(=O)NC3=O)c3ccccc32)C1")
87.6

----------
target: NUAK1 (human); test: radiometric filter-binding kinase assay, Kinase HotSpot; settings: compound 0.5 µM; ATP 10 µM
Please respond with 1 when measured residual activity is strictly beneath 90%, and with -1 in all other cases.

>>> assigned_label("CCn1cnc2c(Nc3cccc(Cl)c3)nc(N[C@@H]3CCCC[C@@H]3N)nc21")
1
>>> assigned_label("CC(=O)O/N=C1\\C(=C2\\C(=O)Nc3cc(Br)ccc32)Nc2ccccc21")
1
>>> assigned_label("O=C1NC(=O)C(c2c[nH]c3ccccc23)=C1c1c[nH]c2ccccc12")
1
>>> assigned_label("O=C1NC(=O)C(c2cn(CCCO)c3ncccc23)=C1c1cnccn1")
1
>>> assigned_label("Nc1nnc2[nH]c3ccccc3nc1-2")
1
>>> assigned_label("O=C(CCCc1ccc(-c2ccccc2F)cc1)Nc1ccc(O)cc1")
-1
>>> assigned_label("CC(C)[C@H](CO)Nc1nc(Nc2cc(N)cc(Cl)c2)c2ncn(C(C)C)c2n1")
1
>>> assigned_label("O=C1Nc2ccccc2/C1=C1\\Nc2ccccc2\\C1=N/O")
1
>>> assigned_label("COc1ccc(OC)c2c(=S)c3ccccc3[nH]c12")
-1

----------
molecular target: EPHB4 (human) (UniProt P54760); test: radiometric filter-binding kinase assay, Kinase HotSpot; conditions: compound 0.5 µM; ATP 10 µM
Sequence (P54760 whole entry, looked up): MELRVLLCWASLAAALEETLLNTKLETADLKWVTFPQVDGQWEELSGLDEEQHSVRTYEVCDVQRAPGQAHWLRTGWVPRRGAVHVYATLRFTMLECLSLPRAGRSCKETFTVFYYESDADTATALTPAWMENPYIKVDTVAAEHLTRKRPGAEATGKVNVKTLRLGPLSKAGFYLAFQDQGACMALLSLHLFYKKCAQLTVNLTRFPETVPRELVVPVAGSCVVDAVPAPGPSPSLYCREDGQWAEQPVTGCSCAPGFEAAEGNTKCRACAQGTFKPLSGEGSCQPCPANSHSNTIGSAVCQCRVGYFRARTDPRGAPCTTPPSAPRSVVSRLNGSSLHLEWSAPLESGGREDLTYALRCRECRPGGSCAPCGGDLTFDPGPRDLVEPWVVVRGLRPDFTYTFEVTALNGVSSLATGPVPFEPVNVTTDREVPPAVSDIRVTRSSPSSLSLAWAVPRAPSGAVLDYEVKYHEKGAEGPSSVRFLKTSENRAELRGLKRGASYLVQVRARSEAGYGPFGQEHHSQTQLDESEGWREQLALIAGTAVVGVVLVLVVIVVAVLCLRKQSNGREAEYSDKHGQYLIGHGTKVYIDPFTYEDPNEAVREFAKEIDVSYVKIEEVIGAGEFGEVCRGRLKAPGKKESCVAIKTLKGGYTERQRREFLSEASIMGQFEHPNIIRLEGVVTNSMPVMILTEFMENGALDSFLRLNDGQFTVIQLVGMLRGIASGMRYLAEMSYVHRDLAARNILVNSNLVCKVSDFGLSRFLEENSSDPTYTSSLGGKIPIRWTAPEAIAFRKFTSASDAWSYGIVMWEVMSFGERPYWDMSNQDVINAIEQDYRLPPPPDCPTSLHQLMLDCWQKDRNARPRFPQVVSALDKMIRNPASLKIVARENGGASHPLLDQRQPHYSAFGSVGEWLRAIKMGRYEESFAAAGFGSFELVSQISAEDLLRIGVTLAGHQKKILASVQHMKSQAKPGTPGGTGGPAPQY
measurement.kind: residual activity (%)

>>> assay_value("COc1cc2ncc(-c3ccccc3)nc2cc1OC")
86.4
>>> assay_value("COc1ccc(OC)c2c(=S)c3ccccc3[nH]c12")
91.1
>>> assay_value("Cc1nc2cc3nc(-c4cccs4)cnc3cc2n1C")
92.1
>>> assay_value("Nc1nnc2[nH]c3ccccc3nc1-2")
84.9
>>> assay_value("Oc1ccc(Nc2nc(-c3ccc(Cl)cc3)cs2)cc1")
89.6
>>> assay_value("CC(=O)O/N=C1\\C(=C2\\C(=O)Nc3cc(Br)ccc32)Nc2ccccc21")
92.2

----------
molecular target: IRAK4 (human) (UniProt Q9NWZ3); experiment: radiometric filter-binding kinase assay, Kinase HotSpot; settings: compound 0.5 µM; ATP 10 µM
Sequence (Q9NWZ3 whole entry, looked up): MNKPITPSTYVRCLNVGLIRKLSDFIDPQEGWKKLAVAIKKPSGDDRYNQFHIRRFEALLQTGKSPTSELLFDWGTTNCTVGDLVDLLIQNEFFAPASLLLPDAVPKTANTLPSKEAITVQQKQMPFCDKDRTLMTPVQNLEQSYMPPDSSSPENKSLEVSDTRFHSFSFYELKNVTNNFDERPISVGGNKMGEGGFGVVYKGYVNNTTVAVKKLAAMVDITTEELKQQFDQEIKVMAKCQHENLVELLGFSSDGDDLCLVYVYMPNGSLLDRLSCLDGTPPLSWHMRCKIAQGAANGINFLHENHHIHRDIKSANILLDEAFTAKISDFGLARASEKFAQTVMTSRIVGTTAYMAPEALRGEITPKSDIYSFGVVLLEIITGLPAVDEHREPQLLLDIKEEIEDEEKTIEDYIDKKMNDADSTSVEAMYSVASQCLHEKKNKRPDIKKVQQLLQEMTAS
measurement.kind: residual activity (%)

>>> assay_value("CC(=O)O/N=C1\\C(=C2\\C(=O)Nc3cc(Br)ccc32)Nc2ccccc21")
94.1
>>> assay_value("Oc1ccc(Nc2nc(-c3ccc(Cl)cc3)cs2)cc1")
111
>>> assay_value("O=C1Nc2ccccc2/C1=C1/Nc2ccccc2/C1=N\\OCCC(O)CO (stereo not drawn)")
60.3
>>> assay_value("CC(C)[C@H](CO)Nc1nc(Nc2cc(N)cc(Cl)c2)c2ncn(C(C)C)c2n1")
86.8
>>> assay_value("COc1cc2ncc(-c3ccccc3)nc2cc1OC")
90.6
>>> assay_value("O=C1NC(=O)C(c2cn(CCCO)c3ncccc23)=C1c1cnccn1")
129
>>> assay_value("CN([C@@H](Cc1ccc(OS(=O)(=O)c2cccc3cnccc23)cc1)C(=O)N1CCN(c2ccccc2)CC1)S(=O)(=O)c1cccc2cnccc12")
92.1
>>> assay_value("Cn1cnc2cc3c(Nc4cccc(Br)c4)ncnc3cc21")
89.1
>>> assay_value("CCN(CC)CCCCN1c2ccccc2Oc2ccc(Cl)cc21")
194
>>> assay_value("Cn1nc2c3c(cccc31)C(=O)c1ccccc1-2")
97.3
>>> assay_value("COc1ccc(CNC(=O)Nc2ncc([N+](=O)[O-])s2)cc1")
101
>>> assay_value("O=C1Cc2c([nH]c3ccc(Br)cc23)-c2ccccc2N1")
88.3
>>> assay_value("O=C1NC(=O)/C(=C\\c2ccc3nccnc3c2)S1")
99.9
>>> assay_value("COc1cc2ncnc(N3CCN(C(=O)Nc4ccc(Oc5ccccc5)cc4)CC3)c2cc1OC")
83.5
>>> assay_value("O=C(CCCc1ccc(-c2ccccc2F)cc1)Nc1ccc(O)cc1")
86.3
>>> assay_value("Nc1nccc(-c2c(-c3ccc(F)cc3)ncn2C2CCNCC2)n1")
123
>>> assay_value("Nc1nnc2[nH]c3ccccc3nc1-2")
94.7
>>> assay_value("O=C1Nc2ccccc2/C1=C1\\Nc2ccccc2\\C1=N/O")
102
>>> assay_value("COc1ccc(OC)c2c(=S)c3ccccc3[nH]c12")
109
>>> assay_value("CCn1cnc2c(Nc3cccc(Cl)c3)nc(N[C@@H]3CCCC[C@@H]3N)nc21")
94.8
>>> assay_value("Cn1sc(=O)n(Cc2ccccc2)c1=O")
107
>>> assay_value("O=C(Nc1cccc(Nc2cc(Nc3cccc(C(F)(F)F)c3)ncn2)c1)C1CC1")
104
>>> assay_value("CC(C)c1nn(-c2c(Cl)cccc2Cl)c2nc(Cc3ccc(OCCO)cc3)nc(O)c12")
112

----------
biological target: CSNK1G1 (human); assay: radiometric filter-binding kinase assay, Kinase HotSpot; conditions: compound 0.5 µM; ATP 10 µM
Entries and their residual activity
measurement.kind: residual activity (%)

>>> assay_value("COc1ccc(CNC(=O)Nc2ncc([N+](=O)[O-])s2)cc1")
97.8
>>> assay_value("O=C1Cc2c([nH]c3ccc(Br)cc23)-c2ccccc2N1")
102
>>> assay_value("COc1cc2ncc(-c3ccccc3)nc2cc1OC")
90.1
>>> assay_value("CCN(CC)CCCCN1c2ccccc2Oc2ccc(Cl)cc21")
104
>>> assay_value("Nc1nnc2[nH]c3ccccc3nc1-2")
99
>>> assay_value("COc1cc2ncnc(N3CCN(C(=O)Nc4ccc(Oc5ccccc5)cc4)CC3)c2cc1OC")
81.6
>>> assay_value("Cn1cnc2cc3c(Nc4cccc(Br)c4)ncnc3cc21")
104
>>> assay_value("CN(C)C[C@H]1CCn2c(c(C3=C(c4cn(C)c5ccccc45)C(=O)NC3=O)c3ccccc32)C1")
97
>>> assay_value("CN([C@@H](Cc1ccc(OS(=O)(=O)c2cccc3cnccc23)cc1)C(=O)N1CCN(c2ccccc2)CC1)S(=O)(=O)c1cccc2cnccc12")
102
>>> assay_value("COc1ccc(OC)c2c(=S)c3ccccc3[nH]c12")
120
>>> assay_value("O=C1Nc2ccccc2/C1=C1\\Nc2ccccc2\\C1=N/O")
86.8
>>> assay_value("Cn1sc(=O)n(Cc2ccccc2)c1=O")
95.2
>>> assay_value("Cc1nc2cc3nc(-c4cccs4)cnc3cc2n1C")
92.2
>>> assay_value("CC(C)[C@H](CO)Nc1nc(Nc2cc(N)cc(Cl)c2)c2ncn(C(C)C)c2n1")
26.4
>>> assay_value("O=C(Nc1cccc(Nc2cc(Nc3cccc(C(F)(F)F)c3)ncn2)c1)C1CC1")
94.8
>>> assay_value("Oc1ccc(Nc2nc(-c3ccc(Cl)cc3)cs2)cc1")
94.5
>>> assay_value("O=C(CCCc1ccc(-c2ccccc2F)cc1)Nc1ccc(O)cc1")
104
>>> assay_value("Nc1nccc(-c2c(-c3ccc(F)cc3)ncn2C2CCNCC2)n1")
83.1
>>> assay_value("Cn1nc2c3c(cccc31)C(=O)c1ccccc1-2")
102
>>> assay_value("O=C1NC(=O)C(c2cn(CCCO)c3ncccc23)=C1c1cnccn1")
101

----------
Entries and their residual activity
target: MAPK11 (human) (UniProt Q15759); assay: radiometric filter-binding kinase assay, Kinase HotSpot; conditions: compound 0.5 µM; ATP 10 µM
Sequence (Q15759 whole entry, looked up): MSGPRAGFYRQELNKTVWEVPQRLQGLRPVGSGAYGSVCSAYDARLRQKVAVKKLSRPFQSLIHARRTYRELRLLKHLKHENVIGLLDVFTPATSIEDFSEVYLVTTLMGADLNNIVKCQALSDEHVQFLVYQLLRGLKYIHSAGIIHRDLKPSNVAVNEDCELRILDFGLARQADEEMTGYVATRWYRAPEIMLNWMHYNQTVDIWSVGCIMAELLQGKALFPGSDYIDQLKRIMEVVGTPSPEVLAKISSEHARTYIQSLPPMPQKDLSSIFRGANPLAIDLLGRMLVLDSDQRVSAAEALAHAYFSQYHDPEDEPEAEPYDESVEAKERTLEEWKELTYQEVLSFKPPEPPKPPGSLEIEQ
measurement.kind: residual activity (%)

>>> assay_value("O=C1Cc2c([nH]c3ccc(Br)cc23)-c2ccccc2N1")
104
>>> assay_value("Nc1nnc2[nH]c3ccccc3nc1-2")
93.8
>>> assay_value("O=C(Nc1cccc(Nc2cc(Nc3cccc(C(F)(F)F)c3)ncn2)c1)C1CC1")
97.2
>>> assay_value("COc1ccc(CNC(=O)Nc2ncc([N+](=O)[O-])s2)cc1")
95.4
>>> assay_value("CN([C@@H](Cc1ccc(OS(=O)(=O)c2cccc3cnccc23)cc1)C(=O)N1CCN(c2ccccc2)CC1)S(=O)(=O)c1cccc2cnccc12")
98.9
>>> assay_value("COc1ccc(OC)c2c(=S)c3ccccc3[nH]c12")
86.7
>>> assay_value("COc1cc2ncnc(N3CCN(C(=O)Nc4ccc(Oc5ccccc5)cc4)CC3)c2cc1OC")
99.6
>>> assay_value("CCn1cnc2c(Nc3cccc(Cl)c3)nc(N[C@@H]3CCCC[C@@H]3N)nc21")
94.1
>>> assay_value("Cn1cnc2cc3c(Nc4cccc(Br)c4)ncnc3cc21")
85.9
>>> assay_value("Oc1ccc(Nc2nc(-c3ccc(Cl)cc3)cs2)cc1")
105

// provenance: the kinase profiling compilation of Christmann-Franck et al. (2016)
